Molecular target: human FSH receptor (Homo sapiens)
Construct: expressed in transfected cells; host or cells: CHO cells, stably transfected; cotransfected with CRE-luciferase reporter
Sequence (P23945 18-695): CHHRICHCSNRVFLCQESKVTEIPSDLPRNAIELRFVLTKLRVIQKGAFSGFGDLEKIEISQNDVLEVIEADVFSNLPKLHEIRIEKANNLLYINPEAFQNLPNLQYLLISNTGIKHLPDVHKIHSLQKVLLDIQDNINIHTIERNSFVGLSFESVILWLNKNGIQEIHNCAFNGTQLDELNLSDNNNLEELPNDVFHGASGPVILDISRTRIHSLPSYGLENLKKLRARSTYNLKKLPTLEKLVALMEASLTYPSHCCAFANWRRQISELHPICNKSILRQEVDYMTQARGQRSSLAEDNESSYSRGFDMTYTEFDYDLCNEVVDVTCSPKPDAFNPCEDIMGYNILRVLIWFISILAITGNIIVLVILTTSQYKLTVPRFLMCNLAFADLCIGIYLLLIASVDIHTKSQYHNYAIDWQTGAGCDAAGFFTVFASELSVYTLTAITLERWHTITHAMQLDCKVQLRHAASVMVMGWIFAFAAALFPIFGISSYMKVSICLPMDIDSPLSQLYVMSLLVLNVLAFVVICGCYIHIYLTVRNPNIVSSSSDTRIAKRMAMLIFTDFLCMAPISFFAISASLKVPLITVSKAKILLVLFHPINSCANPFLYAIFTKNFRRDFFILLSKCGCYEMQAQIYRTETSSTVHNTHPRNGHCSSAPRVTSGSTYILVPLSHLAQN
Experiment: Antagonistic activity of compounds at the human FSH receptor expressed in CHO cells (CRE-luciferase reporter)
Type: cell-based
Settings: CHO cells stably transfected with human FSH receptor and CRE/luciferase reporter; together with 49 μM recFSH; 4 hours incubation; 1% DMSO; read-out: IC50 (concentration of test compound causing half-maximal inhibition of the maximally attainable inhibition of the luciferase stimulation)
pIC50: −log10 of the molar value.
REPORTED METRIC: pIC50

Before answering, review these 2 worked examples.
COMPOUND	TEST RESULT
COc1cc2c(cc1OC(C)C)-c1cc(C(=O)NC(C)(CO)Cc3c[nH]c4ccccc34)c(-c3cccc(F)c3)n1CC2 (stereo not drawn)	6.00 to 7.00
CCc1cc2c(cc1OC)CCn1c-2cc(C(=O)N[C@@H](CO)Cc2c[nH]c3ccccc23)c1-c1cccc(F)c1	> 7.00

I'd like to know its pIC50. The compound in question is COc1cc2c(cc1OC(C)C)-c1cc(C(=O)N[C@@H](CO)Cc3c[nH]c4ccccc34)c(C(=O)c3cccs3)n1CC2
> 7.00

Hey, just so you know, these numbers are from patent US10155259B2.
